- tested_on: T1, Recombinant Human DLL4 (delta-like protein 4) (human, UniProt Q9NR61 27-524)
- T1 construct: also called rHuman DLL4; Delta-like 4
- experiment_description: ELISA, DLL4 coated on plate, Fab at 100 nM
Recorded ELISA Signal-blank (100 nM Fab), one value per entry.

binder | ELISA Signal-blank (100 nM Fab)
Fab VH5-51_IGHD5-18*01>3_IGHJ4*01 G100K/G104T G24T/S28R/G35V & V3-4_IGLJ1*01 V91L/S96P S52W (Fab, V domains shown, Fab expressed in E. coli; heavy chain vector adds CH1 with His6 and Flag tags, light chain vector adds lambda CL; also called H:KT TRV & L:LP S52W) VH: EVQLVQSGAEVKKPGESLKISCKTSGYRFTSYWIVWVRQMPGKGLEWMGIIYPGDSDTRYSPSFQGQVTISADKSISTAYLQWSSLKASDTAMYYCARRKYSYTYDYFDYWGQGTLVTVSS VL: QTVVTQEPSFSVSPGGTVTLTCGLSSGSVSTSYYPSWYQQTPGQAPRTLIYWTNTRSSGVPDRFSGSILGNKAALTITGAQADDESDYYCLLYMGPGISYVFGTGTKVTVL | 0.29
Fab VH5-51_IGHD5-18*01>3_IGHJ4*01 G100K/G104T G24T/S28R/G35V & V3-4_IGLJ1*01 V91L/S96P S52Y (Fab, V domains shown, Fab expressed in E. coli; heavy chain vector adds CH1 with His6 and Flag tags, light chain vector adds lambda CL; also called H:KT TRV & L:LP S52Y) VH: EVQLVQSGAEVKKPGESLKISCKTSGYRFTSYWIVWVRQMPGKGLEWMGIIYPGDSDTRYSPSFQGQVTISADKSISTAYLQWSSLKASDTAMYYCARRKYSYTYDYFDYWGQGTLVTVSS VL: QTVVTQEPSFSVSPGGTVTLTCGLSSGSVSTSYYPSWYQQTPGQAPRTLIYYTNTRSSGVPDRFSGSILGNKAALTITGAQADDESDYYCLLYMGPGISYVFGTGTKVTVL | 0.41
Fab VH5-51_IGHD5-18*01>3_IGHJ4*01 G100K/G104T G24T/S28R/G35V & V3-4_IGLJ1*01 V91L/S96P S52M (Fab, V domains shown, Fab expressed in E. coli; heavy chain vector adds CH1 with His6 and Flag tags, light chain vector adds lambda CL; also called H:KT TRV & L:LP S52M) VH: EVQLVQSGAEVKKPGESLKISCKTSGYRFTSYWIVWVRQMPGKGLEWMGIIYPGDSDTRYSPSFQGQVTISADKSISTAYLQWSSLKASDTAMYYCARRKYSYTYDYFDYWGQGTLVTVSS VL: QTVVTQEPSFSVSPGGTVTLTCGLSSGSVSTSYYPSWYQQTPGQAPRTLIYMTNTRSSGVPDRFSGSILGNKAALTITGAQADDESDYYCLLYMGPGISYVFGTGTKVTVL | 0.46
